# measuredTarget: T1, 4H429-AA
# T1 chain: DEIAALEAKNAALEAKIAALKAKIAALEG
# assayOverview: two-hybrid library CCmax;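 note: natural log of median RNA to DNA barcode read ratio; higher means stronger binding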
# conditionSet: mean of both orientations
observedProperty: interaction score

Some entries whose results are on file:
binder="DKNAALKAKIAALKAENAALEAEIAALEG [4H3921-AA]" reported=-0.196
binder="DKIAALEAEIAALKAKNAALEAKIAALEG [4H2165-AA]" reported=-1.87

[a] DKIAALKAEIAALKAENAALEAEIAALKG [4H2642-AA]
[b] DKIAALEAKIAALKAENAALKAEIAALEG [4H2393-AA]
Which shows the larger interaction score value: a or b ? Answer by quoting the chosen item's label.
a
(a: -0.542, b: -1.55)

[1] DKIAALKAEIAALEAKNAALKAEIAALEG [4H2617-AA]
[2] DENAALKAEIAALEAEIAALKAKNAALKG [4H1552-AA]
Hi, I'm comparing two records. Which one has the lower interaction score, 1 or 2 ? Answer by quoting the chosen item's label.
2
(2: -0.746, 1: 0.393)
